biological target: HDAC1 (Homo sapiens); construct: purchased BPS Bioscience; test: In vitro HDAC1 enzymatic activity inhibition (Lys-Ac-AMC substrate); type: biochemical; settings: read-out: inhibition value IC50 to the activity of HDAC1
Sequence (Q13547 whole entry, species assumed): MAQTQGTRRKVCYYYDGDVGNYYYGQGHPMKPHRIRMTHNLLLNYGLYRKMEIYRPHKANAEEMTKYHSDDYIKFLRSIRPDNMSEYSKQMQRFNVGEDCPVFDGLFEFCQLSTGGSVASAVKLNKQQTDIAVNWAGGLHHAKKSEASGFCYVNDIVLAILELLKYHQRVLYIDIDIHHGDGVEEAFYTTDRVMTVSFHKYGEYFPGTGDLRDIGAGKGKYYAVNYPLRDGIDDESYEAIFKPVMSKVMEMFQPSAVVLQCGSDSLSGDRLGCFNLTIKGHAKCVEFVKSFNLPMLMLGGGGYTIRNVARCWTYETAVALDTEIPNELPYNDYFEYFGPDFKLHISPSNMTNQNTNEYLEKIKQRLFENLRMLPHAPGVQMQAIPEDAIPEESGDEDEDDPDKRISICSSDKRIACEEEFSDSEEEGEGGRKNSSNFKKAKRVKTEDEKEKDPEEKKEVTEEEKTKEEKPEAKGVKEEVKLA
pIC50: −log10 of the molar value.
Metric Name: pIC50

compound_string=CN(C)c1ccc(-c2nc(N3CCOCC3)c3nc(CN(C)c4ncc(C(=O)NO)cn4)n(C)c3n2)cc1 result="> 9.00"
compound_string=COc1ccc(-c2nc(N3CCOCC3)c3nc(CN(C)c4ncc(C(=O)NO)cn4)n(C)c3n2)cc1 result="> 9.00"
compound_string=CN(Cc1nc2c(N3CCOCC3)nc(-c3ccc(CN4CCOCC4)cc3)nc2n1C)c1ncc(C(=O)NO)cn1 result="> 9.00"
compound_string=CN(Cc1nc2c(N3CCOCC3)nc(-c3cccnc3)nc2n1C)c1ncc(C(=O)NO)cn1 result="> 9.00"
compound_string=CN(Cc1nc2c(N3CCOCC3)nc(-c3ccc4[nH]ncc4c3)nc2n1C)c1ncc(C(=O)NO)cn1 result="> 9.00"

Note to self: pIC50 recorded for CN(Cc1nc2c(N3CCOCC3)nc(-c3ccsc3)nc2n1C)c1ncc(C(=O)NO)cn1 was > 9.00

Note to self: pIC50 recorded for CN(Cc1nc2c(N3CCOCC3)nc(-c3ccco3)nc2n1C)c1ncc(C(=O)NO)cn1 was > 9.00

Note to self: pIC50 recorded for CN(Cc1nc2c(N3CCOCC3)nc(-c3cccc(O)c3)nc2n1C)c1ncc(C(=O)NO)cn1 was > 9.00
